- PROTOCOL DESCRIPTION: in vitro
- ASSAY SETUP: human, hela cells, % viability
Binary call on viability at 28.5 h, 10 µM with cut-off 90%: strictly below means criterion met, and equality or higher means criterion not met.

COMPOUND STRUCTURE STRING | CLASS ASSIGNMENT
COC(=O)COc1ccc2cccc(-n3cnnn3)c2c1 | criterion met
O=C(CNC(=O)c1ccccc1C(=O)O)Nc1ccccc1 | criterion not met

Strictly below 90%: is that where viability at 28.5 h, 10 µM of O=C(CCn1ncc2ccccc21)N1CCC(c2ccncc2)CC1 sits?
criterion met

Strictly below 90%: is that where viability at 28.5 h, 10 µM of COc1ccc2c(c1)OC1(CCN(C(=O)c3cc(OC)c(C)c(OC)c3)CC1)NC2=O sits?
criterion met

====

- PROTOCOL DESCRIPTION: in vitro
- ASSAY SETUP: human, hela cells, % viability
Would you kindly list viability at 28.5 h, 10 µM for each of these compounds?
Give bare numbers, in %.

COMPOUND | READOUT NUMBER
O=C(NC1CCCc2c1cnn2-c1ccc(F)cc1)C1CC1 (centres unmarked) | 111
Cc1cccnc1C1(O)CCN(C(=O)NCc2ccccc2)CC1 | 88
COC(=O)c1c(NC(=S)Nc2ccc(Br)cn2)sc2c1CCC(C)C2 (centres unmarked) | 94.6
Cc1cc2ccccc2n1CCCNC(=O)c1ccc(=O)n(C)c1 | 104
Cc1cc(C)c2cc(C(=O)N(C)CC3(C)COC3)[nH]c2c1 | 87
Cc1nnc(CCNC2CCN(c3ncnc4c(C)csc34)CC2)s1 | 84.9
O=C(OCc1ccc(Br)cc1)c1ccccc1S(=O)(=O)c1ccccc1[N+](=O)[O-] | 92.2
O=C(N/N=C\c1ccccc1C(F)(F)F)c1ccc(=O)[nH]n1 | 100

For each of the compounds below, state viability at 28.5 h, 10 µM.
1. COCCn1c(CO)nnc1[C@H]1C[C@@H](NC(=O)c2ccc(F)cc2C)C1
2. CCOC(=O)c1ccc(NCc2c(O)ccc3oc4c(c23)CCCC4)cc1
3. COc1ccc(/C=N/NC(=O)C2CCN(c3ncc(C(F)(F)F)cc3Cl)CC2)cc1
4. COc1cccc(C2CCCN2C(=O)CC2CCN(C(=O)CC3CCCCC3)CC2)c1 (centres unmarked)
5. CCC(=O)c1c(-c2ccccc2)nc2n(C)c3ccccc3n12
6. O=[N+]([O-])c1ccc(CN2CCN(c3nccnc3Oc3ccc(F)cc3)CC2)cc1 [CBK083015T]
7. Cc1ccc(C(=O)C2CCN(S(=O)(=O)c3ccc(Cl)c(Cl)c3)CC2)cc1

94.7
97.7
102
98.4
69.9
92.2
106

For each of the compounds below, state viability at 28.5 h, 10 µM.
1. CN1C(=O)CC2(C1=O)C(=O)N(Cc1ccccc1)c1ccc(F)cc12 (centres unmarked)
2. O=C(Nc1cccc(C(=O)O)c1)/C(=C\c1ccccc1)NC(=O)c1ccccc1Cl
3. CC(C)(C)OC(=O)N1CCC(CNCc2cc(F)cc(F)c2)CC1
4. Cc1cc(C(=O)N2CCN3C(=O)CCC32C)c(C2CC2)o1 (centres unmarked)
5. CCCCn1nc(C(=O)N2CCCCC2c2ncc(-c3cccc(F)c3)[nH]2)ccc1=O (centres unmarked)
6. Cn1c(N2CC[C@H](O)C2)nc2cc(C(=O)NC3CCNCC3)ccc21
7. C[S+]([O-])CCNC(=O)c1cc(-c2cccs2)no1 (centres unmarked)

90.5
90.4
119
97.6
98.6
98.1
84.5

For each of the compounds below, state viability at 28.5 h, 10 µM.
1. OC(c1cccs1)C1CCN(Cc2ccc(-n3cncn3)cc2)CC1 (centres unmarked)
2. O=C(c1ccc(F)cc1)N1CCCC(c2nccnc2-c2cccc(C(F)(F)F)c2)C1 (centres unmarked)
3. O=C(C[C@@H]1CCNC[C@@H]1Cc1cc(-c2ccccc2)on1)N1CCN(c2ccccn2)CC1
4. CCn1c(COc2ccc(Cl)c3cccnc23)nnc1SC
5. CCN1CCCC2(CCN(C(=O)c3ccoc3)C2)C1 (centres unmarked)
6. CO[C@H]1CNC[C@@H]1NC(=O)c1cccc2c1NCCC2

97.8
98.3
81
85.9
97.7
115

For each of the compounds below, state viability at 28.5 h, 10 µM.
1. O=C(CN1C(=O)c2ccccc2C1=O)NCc1ccc(C(=O)O)cc1
2. CCc1c(C)nc2c(C(=O)N3CCOCC3)cnn2c1C
3. Cc1nn(C)c(C)c1CN(C)C(=O)CCC1CCCO1 (centres unmarked)

90.2
99.3
99.7

For each of the compounds below, state viability at 28.5 h, 10 µM.
1. CN1C2CCC1CC(OC(=O)CNC1CCCCC1)C2 (centres unmarked) [CBK278161C]
2. O=C(CC(CN1CCN(CCN2CCCC2)CC1)C(=O)O)Nc1ccccc1 (centres unmarked)

1: 93.6; 2: 109

For each of the compounds below, state viability at 28.5 h, 10 µM.
1. CSc1nc(N)cc(N2CCN(C(=O)OC(C)(C)C)CC2)n1
2. COc1ccc(N2CCN(CC(=O)N3CCC(C(N)=O)CC3)CC2)cc1
3. O=C(Nc1cccnc1)C1CCN(S(=O)(=O)c2ccc(Oc3ccccc3)cc2)CC1
4. COc1cc(CNCCO)ccc1OCc1cccc(Cl)c1 [CBK270013C]
5. O=C(c1ccc(-c2ccccc2)cc1)c1no[n+]([O-])c1C(=O)c1ccc(-c2ccccc2)cc1

1. 111
2. 96.6
3. 81.8
4. 94.5
5. 106

Data origin: paper PMC12040169
